# system.name: Muscarinic acetylcholine receptor M1 (Homo sapiens); note: assay procedure not described here
# Sequence (P11229 whole entry): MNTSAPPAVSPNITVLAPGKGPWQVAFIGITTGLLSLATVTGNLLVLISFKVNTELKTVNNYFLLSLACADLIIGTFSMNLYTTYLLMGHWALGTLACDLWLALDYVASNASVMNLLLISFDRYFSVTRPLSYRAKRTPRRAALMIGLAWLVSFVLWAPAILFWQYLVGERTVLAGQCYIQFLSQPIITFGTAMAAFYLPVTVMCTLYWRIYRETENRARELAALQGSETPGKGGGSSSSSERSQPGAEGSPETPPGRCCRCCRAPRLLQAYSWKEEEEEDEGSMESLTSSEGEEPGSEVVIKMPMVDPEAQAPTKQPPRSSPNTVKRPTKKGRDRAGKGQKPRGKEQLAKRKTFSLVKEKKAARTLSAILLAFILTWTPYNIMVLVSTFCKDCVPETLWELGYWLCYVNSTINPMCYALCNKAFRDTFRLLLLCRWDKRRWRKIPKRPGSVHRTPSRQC
# Format: functional, cell-based
value.type: AC50

**Query** Please supply the value of reported AC50 for the item Cc1ccccc1C(=O)Nc1ccc(C(=O)N2CCCC(N(C)C)c3ccccc32)cc1 (centres undefined)
**Result** 23.7 µM

**Query** Please supply the value of reported AC50 for the item CCn1cc(C(=O)O)c(=O)c2cc3c(cc21)OCO3
**Result** > 30 µM

**Query** Please supply the value of reported AC50 for the item NC(=O)OCC(O)COc1ccc(Cl)cc1 (centres undefined) [CHLORPHENESIN CARBAMATE]
**Result** > 30 µM

**Query** Please supply the value of reported AC50 for the item CC(C)C[C@H](NC(=O)CNC(=O)c1cc(Cl)ccc1Cl)B(O)O
**Result** > 30 µM

**Query** Please supply the value of reported AC50 for the item CC(CN1CC(=O)NC(=O)C1)N1CC(=O)NC(=O)C1 (centres undefined)
**Result** > 30 µM

**Query** Please supply the value of reported AC50 for the item C[C@H](Cc1cc2c(c(C(N)=O)c1)N(CCCO)CC2)NCCOc1ccccc1OCC(F)(F)F
**Result** > 30 µM

**Query** Please supply the value of reported AC50 for the item CN1CCC(=C2c3ccccc3Sc3ccccc32)CC1
**Result** 0.0216 µM

**Query** Please supply the value of reported AC50 for the item COc1cc2nccc(Oc3ccc(NC(=O)C4(C(=O)Nc5ccc(F)cc5)CC4)cc3)c2cc1OC [CABOZANTINIB]
**Result** 2.72 µM

**Query** Please supply the value of reported AC50 for the item C=CCSCC1Nc2cc(Cl)c(S(N)(=O)=O)cc2S(=O)(=O)N1 (centres undefined) [ALTHIAZIDE]
**Result** > 30 µM
